Counter-ions that a name gives are not always drawn.
endpoint_name: melting point

1. CCn1ncnc1COc1nc2c(cnn2-c2ccccc2)c2ccccc12 ... 147 to 148 °C
2. Cn1ncnc1COc1nc2c(cnn2-c2ccccc2)c2ccccc12 ... 149 to 151 °C
3. Cn1ncnc1COc1nc2c(cnn2-c2ccccc2)cc1C(C)(C)C ... 143 to 145 °C
4. CCn1ncnc1COc1nc2c(cnn2-c2ccccc2)cc1C(C)(C)C (as salt: hydrochloride) ... 150 to 152 °C
5. Cn1ncnc1COc1cc(N)c2cnn(-c3ccccc3)c2n1 ... 164 to 166 °C
